- Tested on: MCF7
- METHOD_NOTES: NCI tumour cell line growth inhibition, 48 h
Calls of active or inactive are those of the source. Cut-off read from the data, not from the text of the source: active = GI50 up to about 1.1 µM and inactive = higher.
Hi there, use one of these labels in your reply, thanks! active, inactive

Consider the following illustrative entries.
- COMPOUND: "C=CC(=O)N1C/C(=C\\c2ccc(OC)cc2)C(=O)/C(=C/c2ccc(OC)cc2)C1"
  STUDY_TARGET: "MCF7"
  CATEGORY: "active"
- COMPOUND: "COc1ccccc1N1CCN(S(=O)(=O)c2ccc(Cl)cc2)C1=N"
  STUDY_TARGET: "MCF7"
  CATEGORY: "inactive"
- COMPOUND: "Cc1nc2ccccc2nc1N1CCCC1"
  STUDY_TARGET: "MCF7"
  CATEGORY: "inactive"
- COMPOUND: "OC1(c2ccc(Cl)cc2)c2ccccc2-c2nc3ccccc3n21 (stereo not given)"
  STUDY_TARGET: "MCF7"
  CATEGORY: "inactive"
- COMPOUND: "COc1ccc2[nH]c3c(c2c1)CC(=O)N1CCC[C@H](C1)CC31OCCCO1"
  STUDY_TARGET: "MCF7"
  CATEGORY: "inactive"

Status in this test for Cc1[nH]n(-c2ccccc2)c(=O)c1C(N(CCc1ccccc1)C1=NCC(C)S1)(C(F)(F)F)C(F)(F)F (stereo not given) ?
inactive

Status in this test for `COc1cc2nc(Cl)nc(NS(=O)(=O)c3cc4ccccc4s3)c2cc1OC` ?
inactive

Status in this test for Cc1nn(C(=O)c2ccc(Cl)cc2)c2c1C(c1ccccc1O)SC(=N)N2 (stereo not given) ?
inactive

Status in this test for `CCOC(=O)C(=O)N/N=C1\C(=O)Nc2ccccc21` ?
inactive

Status in this test for C[C@H]1C(OCCOC2O[C@@H]3O[C@@]4(C)CC[C@H]5[C@H](C)CCC([C@H]2C)[C@@]35O4)O[C@@H]2O[C@@]3(C)CC[C@H]4[C@H](C)CCC1[C@@]24O3 (stereo not given in full) ?
inactive
